# test method notes: Enzyme-coupled assay: transfer of acyl-moieties from MMal-CoA to the ACP
# Assay type: biochemical
# condition summary: substrate MMal-CoA, acceptor ACP from murine FAS
attribute measured: kcat (s⁻¹)
Report the figure in s⁻¹ without appending any unit label.

Using the record for Mutant A12: engineered murine acyltransferase, mutations K186D R300D (protein) NKRPLWFICSGMGTQWRGMGLSLMRLDSFRESILRSDEAVKPLGVKVSDLLLSTDERTFDDIVHAFVSLTAIQIALIDLLTSVGLKPDGIIGHSLGEVACGYADGCLSQREAVLAAYWRGQCIKDAHLPPGSMAAVGLSWEECKQRCPAGVVPACHNSEDTVTISGPQAAVNEFVEQLKQEGVFADEVRTGGLAFHSYFMEGIAPTLLQALKKVIREPRPRSARWLSTSIPEAQWQSSLARTSSAEYNVNNLVSPVLFQEALWHIPEHAVVLEIAPHALLQAVLKRGVKSSCTIIPLMKDDHKDNLEFFLTNLGKVHLT , report its kcat.
0.019
